Target: IRAK4 (human purified recombinant enzyme His-TEV-IRAK4 (1-460)) (Homo sapiens)
Construct: His-TEV-IRAK4 (1-460); His (N); TEV cleavage site (N)
Sequence (Q9NWZ3 whole entry): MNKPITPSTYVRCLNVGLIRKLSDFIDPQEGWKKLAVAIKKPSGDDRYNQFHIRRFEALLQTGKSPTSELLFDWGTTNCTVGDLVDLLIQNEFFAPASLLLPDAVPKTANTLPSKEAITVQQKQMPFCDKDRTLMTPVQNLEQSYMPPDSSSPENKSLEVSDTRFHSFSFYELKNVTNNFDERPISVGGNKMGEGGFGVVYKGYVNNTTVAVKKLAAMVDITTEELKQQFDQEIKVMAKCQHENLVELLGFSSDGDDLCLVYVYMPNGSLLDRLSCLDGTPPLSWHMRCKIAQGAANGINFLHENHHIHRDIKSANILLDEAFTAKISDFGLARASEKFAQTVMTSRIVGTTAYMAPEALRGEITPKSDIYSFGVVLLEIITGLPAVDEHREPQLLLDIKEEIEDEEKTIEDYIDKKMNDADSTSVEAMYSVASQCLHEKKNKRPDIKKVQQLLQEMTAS
Assay: IRAK4 enzymatic assay (ADP-Glo luminescence)
Details: human recombinant IRAK4, ATP 2 μM, STK1-biotin peptide
Experimental: IRAK4 is a human purified recombinant enzyme (His-TEV-IRAK4 (1-460)). In this assay, IRAK4 hydrolysed ATP, autophosphorylated and phosphorylated a Serine/Threonine generic peptidic substrate (STK: 61ST1BLC from CisBio International). Measurement of IRAK-4 inhibition was performed in 384-well format based on a luminescence assay (ADP-Glo™ Kinase Assay from Promega). […]
pIC50: −log10 of the molar value.
OBSERVATION TYPE: pIC50

- COMPOUND: "Cc1ccc(-n2nc(C(C)(C)CO)cc2NC(=O)Nc2ccc(-c3csc4ncnc(N)c34)cc2Cl)cc1 [Example 21]"
  READOUT VALUE: "< 5.30"
- COMPOUND: "Cc1ccc(-n2nc(C(C)(C)C(F)(F)F)cc2NC(=O)Nc2ccc(-c3csc4ncnc(N)c34)cc2Cl)cc1 [Example 24]"
  READOUT VALUE: "6.00 to 7.00"
- COMPOUND: "Cc1ccc(-n2nc(C(C)(C)C)cc2NC(=O)Nc2ccc(-c3nn(C)c4ncnc(N)c34)cc2Cl)cc1F [Example 29]"
  READOUT VALUE: "6.00 to 7.00"
- COMPOUND: "Cc1ccc(-n2nc(C(C)(C)C)cc2NC(=O)Nc2ccc(-c3csc4ncnc(N)c34)cc2)cc1 [Example 12]"
  READOUT VALUE: "6.00 to 7.00"
- COMPOUND: "CC(C)c1ccc(-n2nc(C(C)(C)C)cc2NC(=O)Nc2ccc(-c3nn(C)c4ccnc(N)c34)cc2)cc1 [Example 14]"
  READOUT VALUE: "6.00 to 7.00"
- COMPOUND: "Cc1ccc(-n2nc(C(C)(C)C)cc2NC(=O)Nc2ccc(-c3csc4ncnc(N)c34)c(Cl)c2)cc1 [Example 10]"
  READOUT VALUE: "6.00 to 7.00"
- COMPOUND: "Cc1ccc(-n2nc(C(C)(C)C)cc2NC(=O)Nc2ccc(-c3csc4ncnc(N)c34)c(F)c2)cc1 [Example 6]"
  READOUT VALUE: "6.00 to 7.00"
- COMPOUND: "Cc1ccc(-n2nc(C(C)(C)C)cc2NC(=O)Nc2ccc(-c3csc4ncnc(N)c34)cc2Cl)cc1 [Example 11]"
  READOUT VALUE: "5.30 to 6.00"
- COMPOUND: "Cc1ccc(-n2nc(C3(C)COC3)cc2NC(=O)Nc2ccc(-c3nn(C)c4ncnc(N)c34)cc2Cl)cc1 [Example 18]"
  READOUT VALUE: "5.30 to 6.00"
- COMPOUND: "Cc1ccc(-n2nc(C(C)(C)C)cc2NC(=O)Nc2ccc(-c3nn(C)c4ncnc(N)c34)cc2F)cc1 [Example 4]"
  READOUT VALUE: "> 7.00"
- COMPOUND: "Cc1ccc(-n2nc(C(C)(C)C)cc2NC(=O)C(O)c2ccc(-c3nn(C)c4ncnc(N)c34)cc2)cc1 (centres unmarked) [Example 19]"
  READOUT VALUE: "6.00 to 7.00"
- COMPOUND: "Cn1nc(-c2ccc(NC(=O)Nc3cc(C(C)(C)C)nn3-c3ccc(C#N)cc3)c(Cl)c2)c2c(N)ncnc21 [Example 28]"
  READOUT VALUE: "6.00 to 7.00"
- COMPOUND: "CC(C)c1ccc(-n2nc(C(C)(C)C)cc2NC(=O)Nc2ccc(-c3nn(C)c4ncnc(N)c34)cc2F)cc1 [Example 9]"
  READOUT VALUE: "> 7.00"
- COMPOUND: "Cc1ccc(-n2nc(C(C)(C)C)cc2NC(=O)Nc2ccc(-c3nn(C)c4ncnc(N)c34)c(Cl)c2)cc1 [Example 8]"
  READOUT VALUE: "> 7.00"
